// values below are reported IC50
# Target Entity: human V1a receptor (Homo sapiens, UniProt P37288)
# Sequence (P37288 whole entry): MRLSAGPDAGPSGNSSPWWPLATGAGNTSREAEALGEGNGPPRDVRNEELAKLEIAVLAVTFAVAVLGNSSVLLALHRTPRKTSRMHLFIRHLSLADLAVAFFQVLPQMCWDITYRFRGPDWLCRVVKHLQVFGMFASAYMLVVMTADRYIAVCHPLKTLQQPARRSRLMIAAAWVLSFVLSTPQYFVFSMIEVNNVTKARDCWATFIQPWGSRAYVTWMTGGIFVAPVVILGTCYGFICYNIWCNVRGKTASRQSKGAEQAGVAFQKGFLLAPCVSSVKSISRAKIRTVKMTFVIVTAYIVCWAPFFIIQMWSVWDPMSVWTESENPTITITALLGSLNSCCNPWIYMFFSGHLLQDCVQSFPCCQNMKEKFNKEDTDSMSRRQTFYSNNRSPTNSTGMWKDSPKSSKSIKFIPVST
# Assay Method Text: Cellular in vitro assay for vasopressin receptor activity, V1a receptor cell line (aequorin luminescence)
# Measurement Context: CHO cell line transfected with human V1a receptor; [Arg8]-vasopressin at EC50; read-out: IC50 hV1a
Measured Endpoint: IC50 (pM)

INSERT INTO results (compound, target_entity, measured_endpoint, readout_number) VALUES
  ('CC(O)c1nc(Cn2nc(-c3ccc(Cl)cc3)n(C[C@H](O)C(F)(F)F)c2=O)nn1-c1cc(F)ccc1Cl (single isomer, unassigned) [Example 60]', 'human V1a receptor (Homo sapiens, UniProt P37288)', 'IC50', 500),
  ('CC(O)c1nc(Cn2nc(-c3ccc(Cl)cc3)n(C[C@H](O)C(F)(F)F)c2=O)nn1-c1cc(F)ccc1Cl (single isomer, unassigned) [Example 59]', 'human V1a receptor (Homo sapiens, UniProt P37288)', 'IC50', 500);
